Hello, the source for this data is paper PMC9482650, in case you need it.

# Test Target: LNX1_1, Q8TBB1
# Sequence (Q8TBB1 261-371): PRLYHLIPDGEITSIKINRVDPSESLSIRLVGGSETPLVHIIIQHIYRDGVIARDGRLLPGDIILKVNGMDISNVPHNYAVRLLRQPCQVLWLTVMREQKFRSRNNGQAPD
# Protocol Text: holdup assay
# Design: key: below the threshold = too weak to quantify, mostly under pKd 3.1 to 4
# Particulars: plain residues with an end cap or a label only (N-terminal biotin on a linker: ado-ado)
Experimental Readout: pKd

Some binders with recorded pKd:
| Binder | pKd |
| --- | --- |
| DDEDRLVIEI [ZNF831, Q5JPB2] | below the threshold |
| QSLNRMEYIV [JAG1, P78504] | below the threshold |
| TLPRKRMSSI [GPRC6A, Q5T6X5] | 3.78 |
| PLSPEQPTKL [TRIM50, Q86XT4] | below the threshold |

List reported pKd for each of these binders:
1. QKNRKAQEDL [CES3, Q6UWW8]
2. PAPSSGKDYV [CLDN1, O95832]

["below the threshold", "below the threshold"]

Take each entry in turn and give its pKd.
1. EVNETDDTKM [KCNJ1, P48048]
2. HSGYRLNDYV [CLDN14, O95500]

1: 3.92; 2: below the threshold
